Source: patent US20190106460A1

Biological target: βTrCP (Homo sapiens, UniProt Q9Y297)
Sequence (Q9Y297 whole entry): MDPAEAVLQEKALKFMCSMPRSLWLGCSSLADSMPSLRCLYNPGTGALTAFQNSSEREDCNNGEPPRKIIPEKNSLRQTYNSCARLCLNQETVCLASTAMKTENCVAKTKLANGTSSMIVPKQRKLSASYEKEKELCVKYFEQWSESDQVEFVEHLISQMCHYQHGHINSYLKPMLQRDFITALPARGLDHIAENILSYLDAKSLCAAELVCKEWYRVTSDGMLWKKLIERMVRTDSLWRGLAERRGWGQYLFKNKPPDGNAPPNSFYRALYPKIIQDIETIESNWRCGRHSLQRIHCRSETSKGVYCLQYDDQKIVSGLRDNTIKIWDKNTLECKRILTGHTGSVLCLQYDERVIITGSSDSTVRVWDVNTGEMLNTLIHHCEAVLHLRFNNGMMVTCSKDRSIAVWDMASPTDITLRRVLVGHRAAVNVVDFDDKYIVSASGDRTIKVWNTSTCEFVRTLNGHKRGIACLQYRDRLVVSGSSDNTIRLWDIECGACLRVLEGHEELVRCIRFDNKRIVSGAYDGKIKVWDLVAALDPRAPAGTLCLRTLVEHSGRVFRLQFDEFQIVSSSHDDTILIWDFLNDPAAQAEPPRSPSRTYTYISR
Sequence (P63208 whole entry partner): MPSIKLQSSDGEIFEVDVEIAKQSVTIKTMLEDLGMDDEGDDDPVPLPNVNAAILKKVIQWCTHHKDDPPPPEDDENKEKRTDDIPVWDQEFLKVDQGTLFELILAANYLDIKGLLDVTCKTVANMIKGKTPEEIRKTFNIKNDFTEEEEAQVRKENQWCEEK
Experiment: Fluorescence polarisation (FP) binding assay with fluorescein-tagged IκB peptide
Settings: Tables 1, 3, 7, 8; 10 nM fluorescein-tagged IκB peptide; read-out: FP Assay IC50/μM
Starred links: 1 amine or outer side, 2 acyl side, 3 side chain; linkers in the order of their positions; H or OH if unused. Non-standard residues stand in square brackets, D forms with d. Residues, ends and D or L forms follow the SMILES beside them. Phe(4-NO2) = N[C@@H](Cc1ccc([N+](=O)[O-])cc1)C(=O)O; Phe(3-F) = N[C@@H](Cc1cccc(F)c1)C(=O)O; 1Nal = N[C@@H](Cc1cccc2ccccc12)C(=O)O; pS = N[C@@H](COP(=O)(O)O)C(=O)O; Suc = O=C(CCC(=O)[*:2])[*:1]
Endpoint label: IC50

[
  {
    "Compound": "NC(=O)CC[C@H](N)C(=O)NCC(=O)N[C@@H](Cc1cccc(F)c1)C(=O)N[C@@H](Cc1ccc([N+](=O)[O-])cc1)C(=O)N[C@@H](CCC(=O)O)C(N)=O [QG-F(3F)-F(4NO2)-E-NH2]",
    "IC50": "> 100 µM"
  },
  {
    "Compound": "CC[C@H](C)[C@H](NC(=O)CNC(=O)[C@H](COP(=O)(O)O)NC(=O)[C@H](CC(=O)O)NC(=O)CN)C(=O)N[C@@H](Cc1c[nH]cn1)C(=O)N[C@@H](CO)C(N)=O [GD-pS-GIHS-NH2] (H-GD[pS]GIHS-NH2)",
    "IC50": "> 100 µM"
  },
  {
    "Compound": "NC(=O)[C@H](Cc1cccc2ccccc12)NC(=O)[C@H](Cc1ccc([N+](=O)[O-])cc1)NC(=O)CNC(=O)[C@H](CCC(=O)O)NC(=O)CCC(=O)O [Suc-EG-F(4NO2)-1Nal-NH2] (Suc-EG[Phe(4-NO2)][1Nal]-NH2)",
    "IC50": "14 µM"
  }
]

Shifting focus to the compound that follows.
Requested read-out: IC50. Entry: NC(=O)[C@H](CCC(=O)O)NC(=O)[C@H](Cc1cccc2ccccc12)NC(=O)[C@H](Cc1cccc(F)c1)NC(=O)CNC(=O)[C@@H](N)CCC(=O)O [EG-F(3F)-1Nal-E-NH2] (H-EG[Phe(3-F)][1Nal]E-NH2)
> 100 µM

----------
Target: Skp2 (Homo sapiens, UniProt Q13309)
Sequence (Q13309 whole entry, species assumed, one chain of several): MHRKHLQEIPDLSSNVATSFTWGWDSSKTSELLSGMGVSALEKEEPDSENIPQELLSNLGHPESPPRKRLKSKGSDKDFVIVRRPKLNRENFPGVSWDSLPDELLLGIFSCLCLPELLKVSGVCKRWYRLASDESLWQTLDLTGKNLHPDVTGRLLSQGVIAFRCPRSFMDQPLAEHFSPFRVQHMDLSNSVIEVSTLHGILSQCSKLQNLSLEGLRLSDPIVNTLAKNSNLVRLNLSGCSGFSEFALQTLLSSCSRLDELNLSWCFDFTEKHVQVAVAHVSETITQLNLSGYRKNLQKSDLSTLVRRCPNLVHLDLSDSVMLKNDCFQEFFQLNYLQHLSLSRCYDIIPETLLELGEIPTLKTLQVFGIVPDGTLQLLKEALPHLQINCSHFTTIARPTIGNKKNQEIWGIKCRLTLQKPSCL
Sequence (Q13616 whole entry partner, species assumed, one chain of several): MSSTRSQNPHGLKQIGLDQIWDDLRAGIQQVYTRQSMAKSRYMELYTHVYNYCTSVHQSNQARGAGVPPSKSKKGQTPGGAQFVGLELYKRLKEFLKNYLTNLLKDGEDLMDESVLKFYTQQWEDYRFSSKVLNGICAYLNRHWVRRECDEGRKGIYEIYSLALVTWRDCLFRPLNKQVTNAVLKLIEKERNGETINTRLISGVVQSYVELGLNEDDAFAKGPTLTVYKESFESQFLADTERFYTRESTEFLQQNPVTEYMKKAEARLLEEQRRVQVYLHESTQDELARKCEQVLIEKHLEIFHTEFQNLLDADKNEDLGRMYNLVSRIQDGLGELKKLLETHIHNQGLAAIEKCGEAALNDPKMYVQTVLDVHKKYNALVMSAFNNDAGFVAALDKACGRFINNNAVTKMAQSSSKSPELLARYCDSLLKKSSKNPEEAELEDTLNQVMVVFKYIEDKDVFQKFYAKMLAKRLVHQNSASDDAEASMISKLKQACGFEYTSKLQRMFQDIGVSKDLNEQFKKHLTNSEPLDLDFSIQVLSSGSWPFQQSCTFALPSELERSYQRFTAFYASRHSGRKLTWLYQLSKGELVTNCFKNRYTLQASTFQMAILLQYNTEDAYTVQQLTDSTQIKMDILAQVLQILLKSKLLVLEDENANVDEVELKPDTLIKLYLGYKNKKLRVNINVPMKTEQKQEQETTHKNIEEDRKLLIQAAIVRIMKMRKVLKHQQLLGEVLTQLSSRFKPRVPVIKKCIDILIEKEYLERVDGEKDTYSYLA
Sequence (P62877 whole entry partner, species assumed, one chain of several): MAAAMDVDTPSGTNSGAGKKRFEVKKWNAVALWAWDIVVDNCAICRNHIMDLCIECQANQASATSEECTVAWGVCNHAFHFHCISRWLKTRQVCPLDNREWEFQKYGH
Test: Selectivity assay vs other E3s: Skp2
Assay type: biochemical
Settings: 100 μM, value in brackets; read-out: % Inhibition Skp2 @ (100 μM)
Starred links: 1 amine or outer side, 2 acyl side, 3 side chain; linkers in the order of their positions; H or OH if unused. Non-standard residues stand in square brackets, D forms with d. Residues, ends and D or L forms follow the SMILES beside them. *: point of attachment. Phe(4-NO2) = N[C@@H](Cc1ccc([N+](=O)[O-])cc1)C(=O)O; Phe(3-F) = N[C@@H](Cc1cccc(F)c1)C(=O)O; Phe(2-F) = N[C@@H](Cc1ccccc1F)C(=O)O; X1 = CCCCOc1ccc(S(=O)(=O)*)cc1; Suc = O=C(CCC(=O)[*:2])[*:1]; Tos = Cc1ccc(S(=O)(=O)*)cc1
Endpoint label: inhibition at 100 µM (%)
Hi! Could you send only the number? It should be in %, unit omitted.

// solved cases for inhibition at 100 µM follow
[
  {
    "Compound": "NC(=O)CC[C@H](NC(=O)CCC(=O)O)C(=O)NCC(=O)N[C@@H](Cc1cccc(F)c1)C(=O)N[C@@H](Cc1ccc([N+](=O)[O-])cc1)C(=O)N[C@@H](CCC(=O)O)C(N)=O [UBP012, Suc-QGF(3F)F(4NO2)E-NH2]",
    "Study system": "Skp2 (Homo sapiens, UniProt Q13309)",
    "inhibition at 100 µM / %": 0
  },
  {
    "Compound": "CCCCOc1ccc(S(=O)(=O)N[C@H](CC(=O)O)C(=O)N[C@@H](CCC(=O)O)C(=O)NCC(=O)N[C@@H](Cc2cccc(F)c2)C(=O)N[C@@H](Cc2c[nH]c3ccccc23)C(=O)N[C@@H](CCC(=O)O)C(N)=O)cc1 [UBP030, 4-(BuO)-PhSO2-dEGF(3F)WE-NH2] (X1-[dD]EG[Phe(3-F)]WE-NH2)",
    "Study system": "Skp2 (Homo sapiens, UniProt Q13309)",
    "inhibition at 100 µM / %": 13
  }
]

So what's the measured inhibition at 100 µM for this one? NC(=O)[C@H](CCC(=O)O)NC(=O)[C@H](Cc1ccc([N+](=O)[O-])cc1)NC(=O)[C@H](Cc1ccccc1F)NC(=O)CNC(=O)[C@H](CCC(=O)O)NC(=O)CCC(=O)O [UBP003, Suc-EGF(2F)F(4NO2)E-NH2] (Suc-EG[Phe(2-F)][Phe(4-NO2)]E-NH2)
11

Record request: inhibition at 100 µM value, item Cc1ccc(S(=O)(=O)N[C@H](CC(=O)O)C(=O)N[C@@H](CC(=O)O)C(=O)NCC(=O)N[C@@H](Cc2cccc(F)c2)C(=O)N[C@@H](Cc2c[nH]c3ccccc23)C(=O)N[C@@H](CCC(=O)O)C(N)=O)cc1 [UBP025, Ts-dDGF(3F)WE-NH2] (Tos-[dD]DG[Phe(3-F)]WE-NH2)
22

----------
Below, each entry is listed with its recorded inhibition at 10 µM.
Biological target: Skp2 (Homo sapiens)
Test: Selectivity assay vs other E3s: Skp2
Format: biochemical
Settings: read-out: % Inhibition Skp2 @ 10 μM
Starred links: 1 amine or outer side, 2 acyl side, 3 side chain; linkers in the order of their positions; H or OH if unused. Non-standard residues stand in square brackets, D forms with d. Residues, ends and D or L forms follow the SMILES beside them. *: point of attachment. Phe(4-NO2) = N[C@@H](Cc1ccc([N+](=O)[O-])cc1)C(=O)O; Benzenesulfonyl(4-OMe) = COc1ccc(S(=O)(=O)*)cc1; Phe(3-F) = N[C@@H](Cc1cccc(F)c1)C(=O)O; Phe(4-F) = N[C@@H](Cc1ccc(F)cc1)C(=O)O; 1Nal = N[C@@H](Cc1cccc2ccccc12)C(=O)O; Phe(2-F) = N[C@@H](Cc1ccccc1F)C(=O)O; Suc = O=C(CCC(=O)[*:2])[*:1]; Tos = Cc1ccc(S(=O)(=O)*)cc1; Ethoxycarbonyl = CCOC(=O)*
Enter your answer as a number in %; do not include the unit.

Consider the worked cases shown below.
[
  {
    "Compound": "COc1ccc(S(=O)(=O)N[C@H](CC(=O)O)C(=O)N[C@@H](CCC(=O)O)C(=O)NCC(=O)N[C@@H](Cc2cccc(F)c2)C(=O)N[C@@H](Cc2c[nH]c3ccccc23)C(=O)N[C@@H](CCC(=O)O)C(N)=O)cc1 [4-(MeO)-PhSO2-dEGF(3F)WE-NH2] ({Benzenesulfonyl(4-OMe)}-[dD]EG[Phe(3-F)]WE-NH2)",
    "Unit tag": "%",
    "inhibition at 10 µM": 7
  },
  {
    "Compound": "NC(=O)[C@H](CCC(=O)O)NC(=O)[C@H](Cc1ccc([N+](=O)[O-])cc1)NC(=O)[C@H](Cc1ccc(F)cc1)NC(=O)CNC(=O)[C@H](CCC(=O)O)NC(=O)CCC(=O)O [UBP005, Suc-EGF(4F)F(4NO2)E-NH2] (Suc-EG[Phe(4-F)][Phe(4-NO2)]E-NH2)",
    "Unit tag": "%",
    "inhibition at 10 µM": 0
  },
  {
    "Compound": "Cc1ccc(S(=O)(=O)N[C@H](CC(=O)O)C(=O)N[C@@H](CC(=O)O)C(=O)NCC(=O)N[C@@H](Cc2cccc(F)c2)C(=O)N[C@@H](Cc2c[nH]c3ccccc23)C(=O)N[C@@H](CCC(=O)O)C(N)=O)cc1 [UBP025, Ts-dDGF(3F)WE-NH2] (Tos-[dD]DG[Phe(3-F)]WE-NH2)",
    "Unit tag": "%",
    "inhibition at 10 µM": 0
  },
  {
    "Compound": "Cc1ccc(S(=O)(=O)N[C@@H](CC(=O)O)C(=O)N[C@@H](CCC(=O)O)C(=O)NCC(=O)N[C@@H](Cc2cccc(F)c2)C(=O)N[C@@H](Cc2c[nH]c3ccccc23)C(=O)N[C@@H](CCC(=O)O)C(N)=O)cc1 [Ts-DEGF(3F)WE-NH2] (Tos-DEG[Phe(3-F)]WE-NH2)",
    "Unit tag": "%",
    "inhibition at 10 µM": 0
  },
  {
    "Compound": "NC(=O)[C@H](CCC(=O)O)NC(=O)[C@H](Cc1ccc([N+](=O)[O-])cc1)NC(=O)[C@H](Cc1ccccc1F)NC(=O)CNC(=O)[C@H](CCC(=O)O)NC(=O)CCC(=O)O [UBP003, Suc-EGF(2F)F(4NO2)E-NH2] (Suc-EG[Phe(2-F)][Phe(4-NO2)]E-NH2)",
    "Unit tag": "%",
    "inhibition at 10 µM": 8
  }
]

Lab request: please report inhibition at 10 µM under test system Skp2 (Homo sapiens) for CCOC(=O)N[C@H](CC(=O)O)C(=O)N[C@@H](CCC(=O)O)C(=O)NCC(=O)N[C@@H](Cc1cccc(F)c1)C(=O)N[C@@H](Cc1c[nH]c2ccccc12)C(=O)N[C@@H](CCC(=O)O)C(N)=O [UBP023, EtO(CO)-dEGF(3F)WE-NH2] (Ethoxycarbonyl-[dD]EG[Phe(3-F)]WE-NH2)
4

# returns recorded inhibition at 10 µM (system: Skp2 (Homo sapiens)) for NC(=O)[C@H](CCC(=O)O)NC(=O)[C@H](Cc1c[nH]cn1)NC(=O)[C@H](Cc1cccc(F)c1)NC(=O)CNC(=O)[C@H](CCC(=O)O)NC(=O)CCC(=O)O [UBP015, Suc-EGF(3F)HE-NH2] (Suc-EG[Phe(3-F)]HE-NH2)
3

For the record NC(=O)[C@H](CCC(=O)O)NC(=O)[C@H](Cc1cccc2ccccc12)NC(=O)[C@H](Cc1cccc(F)c1)NC(=O)CNC(=O)[C@H](CCC(=O)O)NC(=O)CCC(=O)O [UBP010, Suc-EGF(3F)1NalE-NH2] (Suc-EG[Phe(3-F)][1Nal]E-NH2) , what value of inhibition at 10 µM is listed for Skp2 (Homo sapiens)?
0
